test system: Coxsackievirus B4; assay: Antiviral activity against Coxsackievirus B4 virus infected in human HeLa cells assessed as inhibition of virus-induced cytopathic effect up to 200 uM after 3 days; format: functional, organism-based
Active and inactive are the calls of the source. No cut-off for these calls is given here.
reportedEndpoint: Activity

compoundsmiles=Cc1cn([C@H]2C=C[C@@H](CC[PH](=O)O)O2)c(=O)[nH]c1=O readoutvalue=inactive
compoundsmiles=Cc1cn([C@H]2C[C@H](N=[N+]=[N-])[C@@H](CC[PH](=O)O)O2)c(=O)[nH]c1=O readoutvalue=inactive
compoundsmiles=BP(=O)(O)CC[C@@H]1C=C[C@H](n2cc(C)c(=O)[nH]c2=O)O1 readoutvalue=inactive
compoundsmiles=BP(=O)(O)CC[C@H]1O[C@@H](n2cc(C)c(=O)[nH]c2=O)C[C@@H]1N=[N+]=[N-] readoutvalue=inactive
